Molecular target: T1, mouse DLL3 on CHO K1-mDLL3 cells (mouse, UniProt O88516 33-490)
T1 construct: also called mouse DLL3 recombinant cell line
T1 sequence: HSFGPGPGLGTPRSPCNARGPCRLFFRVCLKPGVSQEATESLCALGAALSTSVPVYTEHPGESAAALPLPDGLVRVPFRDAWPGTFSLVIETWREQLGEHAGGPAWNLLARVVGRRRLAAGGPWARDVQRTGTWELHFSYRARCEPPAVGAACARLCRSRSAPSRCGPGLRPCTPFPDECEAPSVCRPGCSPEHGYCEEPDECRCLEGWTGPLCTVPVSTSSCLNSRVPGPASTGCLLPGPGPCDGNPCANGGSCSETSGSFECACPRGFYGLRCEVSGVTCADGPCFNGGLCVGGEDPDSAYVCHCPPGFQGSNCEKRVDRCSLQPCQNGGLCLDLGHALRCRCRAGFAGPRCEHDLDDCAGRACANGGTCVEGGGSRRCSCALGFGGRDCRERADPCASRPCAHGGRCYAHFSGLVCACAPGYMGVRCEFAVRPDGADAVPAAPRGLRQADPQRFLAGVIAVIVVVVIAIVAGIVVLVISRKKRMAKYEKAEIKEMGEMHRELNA
Assay: FACS, CHO K1-mDLL3 cells
reported.property: binding result

[[record]]
binder = "Hab015VL5VH1a-hFc (Fc fusion, humanized mab015, VL-linker-VH-human IgG1 Fc; also called Hab015L5H1a; not shown: linker; human IgG1 Fc fragment) scFv (part 1 of 2): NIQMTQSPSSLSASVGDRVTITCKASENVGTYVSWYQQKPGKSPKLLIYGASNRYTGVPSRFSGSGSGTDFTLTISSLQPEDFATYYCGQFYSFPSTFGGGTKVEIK scFv (part 2 of 2): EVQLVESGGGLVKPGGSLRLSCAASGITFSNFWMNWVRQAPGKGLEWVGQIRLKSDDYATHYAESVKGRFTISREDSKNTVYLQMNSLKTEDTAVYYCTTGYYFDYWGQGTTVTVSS"
reported_property = "binding result"
meas_value = "binds"

[[record]]
binder = "Hab009VL1aVH1-hFc (Fc fusion, humanized mab009, VL-linker-VH-human IgG1 Fc; not shown: linker; human IgG1 Fc fragment) scFv (part 1 of 2): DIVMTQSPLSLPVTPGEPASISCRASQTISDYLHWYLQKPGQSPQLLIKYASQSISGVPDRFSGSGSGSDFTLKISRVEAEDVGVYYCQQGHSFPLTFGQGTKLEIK scFv (part 2 of 2): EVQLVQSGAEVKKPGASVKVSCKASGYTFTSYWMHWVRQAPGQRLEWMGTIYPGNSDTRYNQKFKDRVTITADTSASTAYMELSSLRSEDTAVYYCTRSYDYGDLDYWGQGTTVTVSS"
reported_property = "binding result"
meas_value = "binds"

